Task for the reader: assign each of the following compounds its reported GI50.
- Test system: Malme-3M
- method description: NCI tumour cell line growth inhibition, 48 h
Activity calls are given as the source filed them. Cut-off read from the data, not from the text of the source: active = GI50 up to about 1.1 µM and inactive = higher.

Return GI50 measured with Malme-3M given this compound: COC(=O)C(CC(=O)Nc1ccc(Cl)c(Cl)c1)C(=O)C(=O)NC1C2CC3CC(C2)CC1C3 (stereo not given)
> 100 µM (inactive)

Short answer please: GI50, Malme-3M, entry O=[N+]([O-])c1cccnc1NCC1(CO)CC(Cc2ccccc2)C1 (stereo not given)
> 100 µM (inactive)

Query the reported GI50 for Malme-3M; item: "CC(C(=O)NCCNC(=O)CCC(=O)N(C)O)C(=O)NCCNC(=O)CCC(=O)N(C)O"
> 100 µM (inactive)

Value wanted: GI50 (Malme-3M) of entry "COC(=O)Cc1c([C@H]2[C@H](CC(=O)OC)c3ccccc3N2C(=O)C(F)(F)F)[nH]c2ccccc12"
29.9 µM (inactive)

Request body: readout GI50, system Malme-3M, query C[C@H](CCC1SC1(C)C)C1CCC2(C)C3=C(CC[C@]12C)[C@@]1(C)CC[C@H](O)C(C)(C)C1CC3 (stereo not given in full) . Return the value.
> 100 µM (inactive)

Param readout = GI50; param system = Malme-3M; param query = O=C1CCC(=O)C(C(=O)CCC(=O)Nc2cccc(Cl)c2)C1 (stereo not given) ; response: value
> 100 µM (inactive)

Lab note: need GI50 for "CC(C)(C)c1ccc(C(O)c2ccc(C(C)(C)C)cc2)cc1" on Malme-3M, anyone have it?
15.8 µM (inactive)

Short answer please: GI50, Malme-3M, entry "CCN(CC)Cc1ccc(C(=S)Nc2ccc(C)cc2)s1"
16.5 µM (inactive)

// map CN(C)CC(/C(Cc1ccccc1)=N\NC(=O)c1ccncc1)c1ccccc1 (stereo not given) to recorded GI50 (system: Malme-3M)
28.8 µM (inactive)

Missing value: GI50, Malme-3M, entry NC(C(=O)O)c1ccc(C(=O)O)cc1 (stereo not given) . Fill in?
> 100 µM (inactive)
